# ASSAY NOTES: Cmax in Swiss albino mouse at 10 mg/kg, ip measured upto 24 hrs by LC-MS analysis
# Format: ADME, organism-based
# Parameters: route intraperitoneal, dose 10 mg/kg, time <=24
# CONDITION PARAMETERS: in vivo
ASSAY METRIC: Cmax (ng/mL)

                              sample_smiles  unit_symbol  assay_value
0  O=C(O)Cn1nncc1CO[C@@H](C(=O)O)[C@@H](OCc1cnnn1CC(=O)O)C(=O)O        ng/mL        26000

---

# ASSAY NOTES: Inhibition of soybean LOX using arachidonic acid as substrate incubated for 5 mins
# Parameters: species or system Glycine max
Label Y when IC50 is strictly below 100 nM; at or above that, label N.

                                   compound  assigned_class
0  CCOC(=O)[C@H](OCc1cnnn1[C@@H](Cc1ccc(O)cc1)C(=O)OC)[C@@H](OCc1cnnn1[C@@H](Cc1ccc(O)cc1)C(=O)OC)C(=O)OCC               N
1  CC1(C)Cc2c(-c3ccccc3)c(-c3ccc(Cl)cc3)c(CC(=O)O)n2C1 [LICOFELONE]               N
2  CCOC(=O)[C@H](O)[C@@H](OCc1cnnn1[C@@H](CO)C(=O)OC)C(=O)OCC               N
3  CCOC(=O)[C@H](OCc1cnnn1[C@@H](CO)C(=O)OC)[C@@H](OCc1cnnn1[C@@H](CO)C(=O)OC)C(=O)OCC               N
4  O=C1NC(=O)C(=Cc2cn(C[C@H](O)COc3cc(O)c4c(=O)cc(-c5ccccc5)oc4c3)c3ccccc23)C(=O)N1               Y
5  COc1ccc(-n2nc(CCC(=O)N(C)O)cc2-c2ccc(Cl)cc2)cc1 [TEPOXALIN]               N
6  Cc1ccc(S(=O)(=O)n2cc(C(=O)C(=O)N[C@H](C(=O)NCC(=O)O)c3c[nH]c4ccccc34)c3ccccc32)cc1               Y
7  CCOC(=O)[C@H](OCc1cnnn1[C@H](Cc1ccc(O)cc1)C(=O)OC)[C@@H](OCc1cnnn1[C@@H](Cc1ccc(O)cc1)C(=O)OC)C(=O)OCC               N
